- ASSAYED_TARGET: T1, Recombinant mouse DDR2 ECD-Fc (R&D systems, Cat. No. 7479-DR-050) (mouse, UniProt Q62371 22-399, biotinylated)
- T1 construct: Bought protein; not shown: Fc part of the bought fusion protein, not described
- T1 sequence: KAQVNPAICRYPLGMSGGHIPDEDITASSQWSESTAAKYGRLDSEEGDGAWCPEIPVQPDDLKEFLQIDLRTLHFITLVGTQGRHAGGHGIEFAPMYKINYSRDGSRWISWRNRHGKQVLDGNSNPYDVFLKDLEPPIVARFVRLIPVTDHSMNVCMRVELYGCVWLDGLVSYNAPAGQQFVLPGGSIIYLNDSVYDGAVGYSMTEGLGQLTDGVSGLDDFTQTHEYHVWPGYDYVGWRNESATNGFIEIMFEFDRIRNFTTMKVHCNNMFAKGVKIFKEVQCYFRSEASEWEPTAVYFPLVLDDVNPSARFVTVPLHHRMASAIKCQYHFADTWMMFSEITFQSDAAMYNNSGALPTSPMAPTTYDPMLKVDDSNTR
- METHOD_SUMMARY: Octet tandem binning on captured mouse DDR2 ECD-Fc; competitor Ab1 (bound first) DAB0048
# reported Octet response of Ab2; entries follow

Would you please look over these solved cases?
q: I am curious: what Octet response of Ab2 value has been reported for DAB0065 (antibody, V domains shown, Variable regions from immunized rabbits) VH: QSVEESGGRLVTPGTPLTLTCTVSGFSLSTSAMSWVRQAPGKGLEWIGMITYGGSGSTWYASWANGRFTISKTSTTVTLKMTSPTTEDTASYFCARVYGTIGSNFYSIYSFNLWGQGTLVTVSS VL: AAVLTQTPSPVSAAVGGTVSISCQSSKSVYNSNYLSWYQQKPGQPPKLLIYYTSALASGVSSRFKGSGSGTRFTLTISDVQCDDAATYYCAGGYSSSSDNGFGGGTKVEIK ?
a: 1.65

q: I am curious: what Octet response of Ab2 value has been reported for DAB0094 (antibody, V domains shown, Variable regions from immunized rabbits) VH: QSVEESGGRLVTPGTPLTLTCTVSGFSLSSYSVAWVRQAPGKGLEWIGYISYSGSTYYASWVNGRFTISKTSTTVDLKMTSLTASDTATYFCARDPGYSRDLWGQGTLVTVSS VL: DVVMTQTPSSVSEPVGGTVTIKCQASQSIGSYLSWYQQKPGQPPKLLIYRASTLASGVSSRFKGSGSGTEFTLTINGLECADAAIYYCQSSYVGVSHGSFGGGTKVEIK ?
a: 1.42

From here, focus on the item given below.
q: I am curious: what Octet response of Ab2 value has been reported for DAB0045 (antibody, V domains shown, Variable regions from immunized rabbits) VH: QSVEESGGRLVTPGTPLTLTCTVSGFSLSSYSMGWVRQAPGKGLEYIGVINTSDSAYYASWAKGRFTISRTSTTVDLKMTSLTTEDTATYFCARAIGYYGSGWGACYFNLWGQGTLVTVSS VL: AIKMTQTPSSVSAAVGGTVTVNCQASEDIKSYLAWYQQKPGQPPKLLIYSASTLASGVSSRFKGSGSGTQFTLTISDLECADAATYYCQSYYGTSTTGEYNAFGGGTKVEIK ?
a: 1.2
